For each entry below, report its viability, T/C value.
system: 276233-004-R-J1-PDC complex spheroid viability; test: Anticancer human tumor 276233-004-R-J1-PDC patient-derived colon adenocarcinoma cell line growth inhibition [GQUAD]; details: second compound 10 µM; first compound 0.1 µM; hits give low values
API: value field is a number in %; no unit string.

Task: I'm curious: which viability, T/C was measured for O=C(c1cc(Cc2n[nH]c(=O)c3ccccc23)ccc1F)N1CCN(C(=O)C2CC2)CC1 + Cc1[nH]c2ccc(F)cc2c1-c1nc2c3cccnc3c3ncccc3c2[nH]1 tested on 276233-004-R-J1-PDC complex spheroid viability?
Result: 50.9

Task: I'm curious: which viability, T/C was measured for CC1COCCN1c1cc(-c2ccnn2C)c2ccnc(-c3ccn[nH]3)c2n1 (stereo not drawn) + Cc1[nH]c2ccc(F)cc2c1-c1nc2c3cccnc3c3ncccc3c2[nH]1 tested on 276233-004-R-J1-PDC complex spheroid viability?
Result: 49.6

Task: I'm curious: which viability, T/C was measured for COc1cccc2c1C(=O)c1c(O)c3c(c(O)c1C2=O)CC(O)(C(=O)CO)CC3OC1CC(N)C(O)C(C)O1 (stereo not drawn) + CN(C)c1ccc(Nc2c3ccc(NC(=O)CCN4CCCC4)cc3nc3cc(NC(=O)CCN4CCCC4)ccc23)cc1 tested on 276233-004-R-J1-PDC complex spheroid viability?
Result: 51.5

###

system: 276233-004-R-J1-PDC complex spheroid viability; assay: Anticancer human tumor 276233-004-R-J1-PDC cell line growth inhibition [GQUAD]; details: second compound 1 µM; first compound 0.316 µM; hits give low values;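 further: spheroids exposed to drugs for seven days; 100% = DMSO vehicle control viability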
Test Readout: viability, T/C (%)
API: value field is a number in %; no unit string.

Task: Given the entry COc1cccc2c1C(=O)c1c(O)c3c(c(O)c1C2=O)CC(O)(C(=O)CO)CC3OC1CC(N)C(O)C(C)O1 (centres undefined) + CN(C)c1ccc(Nc2c3ccc(NC(=O)CCN4CCCC4)cc3nc3cc(NC(=O)CCN4CCCC4)ccc23)cc1 , report its measured viability, T/C.
Result: 53.2

Task: Given the entry O=C(c1cc(Cc2n[nH]c(=O)c3ccccc23)ccc1F)N1CCN(C(=O)C2CC2)CC1 + Cc1cnc(CNC(=O)c2c(=O)c3ccc(N4CCCN(C)CC4)nc3n3c2sc2ccccc23)cn1 , report its measured viability, T/C.
Result: 91.2

Task: Given the entry Cn1ncnc1[C@H]1c2n[nH]c(=O)c3cc(F)cc(c23)N[C@@H]1c1ccc(F)cc1 + Cc1[nH]c2ccc(F)cc2c1-c1nc2c3cccnc3c3ncccc3c2[nH]1 , report its measured viability, T/C.
Result: 84.7

Task: Given the entry Cc1[nH]c2ccccc2c1CCNCc1ccc(/C=C/C(=O)NO)cc1 + CN(C)c1ccc(Nc2c3ccc(NC(=O)CCN4CCCC4)cc3nc3cc(NC(=O)CCN4CCCC4)ccc23)cc1 , report its measured viability, T/C.
Result: 21.8

###

test system: 276233-004-R-J1-PDC complex spheroid viability; assay: Anticancer human tumor 276233-004-R-J1-PDC cell line growth inhibition [GQUAD]; conditions: second compound 3.16 µM; first compound 3.16 µM; active = viability on the fitted dose curve at most 10% of control; inactive = the rest;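 further: spheroids exposed to drugs for seven days; 100% = DMSO vehicle control viability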
Select the correct class. Options are active, inactive and nothing else.

Task: Just curious, what result did O=C(NO)c1cnc(N2CCN(S(=O)(=O)c3ccc4ccccc4c3)CC2)nc1 + Cc1[nH]c2ccc(F)cc2c1-c1nc2c3cccnc3c3ncccc3c2[nH]1 get here?
Result: active

Task: Just curious, what result did COc1ccc([C@@H](O)c2cc(-c3ncnc4cc(N5CCOCC5)ccc34)c(F)cc2Cl)nn1 + Cc1cnc(CNC(=O)c2c(=O)c3ccc(N4CCCN(C)CC4)nc3n3c2sc2ccccc23)cn1 get here?
Result: inactive

Task: Just curious, what result did COc1ccc([C@@H](O)c2cc(-c3ncnc4cc(N5CCOCC5)ccc34)c(F)cc2Cl)nn1 + CN(C)c1ccc(Nc2c3ccc(NC(=O)CCN4CCCC4)cc3nc3cc(NC(=O)CCN4CCCC4)ccc23)cc1 get here?
Result: inactive

Task: Just curious, what result did COc1ncnc(C2CC2)c1-c1ncc2cnn(Cc3ccc(-c4nc(C(F)(F)F)cn4C(C)C)cc3)c2n1 + Cc1cnc(CNC(=O)c2c(=O)c3ccc(N4CCCN(C)CC4)nc3n3c2sc2ccccc23)cn1 get here?
Result: inactive
